Quick reference for SI (selectivity index = IC50 COX-1/IC50 COX-2) among some molecules
# study-system: COX-2 (Homo sapiens, UniProt P35354)
# Construct: purchased Cayman Chemical (Ann Arbor, MI, USA)
# experiment: COX-2 inhibitor screening assay kit (Cayman)
# Assay type: biochemical

Look up SI (selectivity index = IC50 COX-1/IC50 COX-2): O=C(O)CC1COCCN1Cc1cccc(-c2ccccn2)c1 (stereo not shown)
190.88

Any idea what SI (selectivity index = IC50 COX-1/IC50 COX-2) was measured for COc1cccc(-c2nn(-c3ccccc3)cc2CN(C)CCc2cn[nH]c2)c1 ?
132.64

What does the record list as SI (selectivity index = IC50 COX-1/IC50 COX-2) for COc1ccc(CN(Cc2ccc(F)cc2)CC2CCCO2)cc1CO (stereo not shown) ?
36.3

# get_value(readout='SI (selectivity index = IC50 COX-1/IC50 COX-2)', item= O=C(O)COc1ccc(Cl)cc1C1CC(=O)Nc2cc3[nH]ncc3cc21 (stereo not shown) )
95.068

====

# Test system: rat stomach
# experiment: Histopathological examination of rat stomach / ulcerogenic effect
# Type: in vivo
# condition-details: single dose 20 mg/kg orally; 10× magnification
property: rat stomach histopathology, H&E

compound	observed-result
Cc1cccc2[nH]c(C3CCCN(C(=O)c4ccccc4NCC(=O)O)C3)nc12 (stereo not shown)	normal gastric layers
CCOC(=O)c1cn(-c2cc(C#N)ccc2O)cc(Oc2ccccc2)c1=O	normal gastric layers

====

# pIC50 values compiled below
Target protein (sequence): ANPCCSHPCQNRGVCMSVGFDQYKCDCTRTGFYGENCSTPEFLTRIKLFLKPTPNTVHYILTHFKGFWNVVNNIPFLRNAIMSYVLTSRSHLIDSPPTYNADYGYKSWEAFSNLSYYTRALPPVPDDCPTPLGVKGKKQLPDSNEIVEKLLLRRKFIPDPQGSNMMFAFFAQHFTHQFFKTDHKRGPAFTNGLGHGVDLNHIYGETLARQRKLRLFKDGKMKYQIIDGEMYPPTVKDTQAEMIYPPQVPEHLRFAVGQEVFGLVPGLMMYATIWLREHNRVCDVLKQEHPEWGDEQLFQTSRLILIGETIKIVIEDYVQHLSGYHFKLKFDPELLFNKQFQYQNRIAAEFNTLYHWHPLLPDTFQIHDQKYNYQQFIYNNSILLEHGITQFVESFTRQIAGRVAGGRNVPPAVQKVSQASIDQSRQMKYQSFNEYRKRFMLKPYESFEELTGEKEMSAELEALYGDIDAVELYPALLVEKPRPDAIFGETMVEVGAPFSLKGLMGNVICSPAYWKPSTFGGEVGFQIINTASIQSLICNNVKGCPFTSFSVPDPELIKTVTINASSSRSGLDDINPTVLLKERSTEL
Scale for pIC50: -log10 of concentration given in mol/L; no unit attached.

// solved cases for pIC50 follow
compound	property	observed-result
COc1ccc(CN(Cc2ccc(F)cc2)CC2CCCO2)cc1CO (centres unmarked) [Compound 4]	pIC50	6.68
O=C(O)[C@H]1C[C@@H](C(=O)NC2CC2)CN(C(=O)c2ccc3[nH]nnc3c2)C1 [Compound 3]	pIC50	7.22

I would be grateful if you could share the reported pIC50 for O=C(O)COc1ccc(Cl)cc1C1CC(=O)Nc2cc3[nH]ncc3cc21 (centres unmarked) [Compound 7] .
7.01

Need pIC50 of O=C(O)CC1COCCN1Cc1cccc(-c2ccccn2)c1 (centres unmarked) [Compound 6] , thanks.
7.22

Would you mind telling me what pIC50 value was observed for COc1cccc(-c2nn(-c3ccccc3)cc2CN(C)CCc2cn[nH]c2)c1 [Compound 5] ?
7.10

Data origin, for the record: paper PMC8955829
